Tested on: Sam68 (KHDRBS1)
ASSAY PROTOCOL: Sam68 small-molecule binders, primary screen, biochemical, small-molecule microarray, 635 nm fluorescence (AID 1125);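 also: score merges 667 nm channel intensity with signal to noise over triplicate slides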
CONDITION CONTEXT: small-molecule microarray binding, higher = more signal
MEASURED METRIC: composite z-score

• COc1ccc(C(O)C2C=CC3C(=O)N(c4ccccc4)C(=O)C3N2Nc2ccc(C(C)C)cc2)c2ccccc12 (configuration not stated) = 1.31
• COCC1C2CC[C@H]3C(OCc4ccc(OC)cc4)OC[C@]4(C)[C@H]3C2=C(CN4C(=O)OC(C)(C)C)[C@H](C)C1COC (some centres not stated) = 1.3
• COCCOC(=O)N1C(=O)[C@@]2(c3cc(C#Cc4ccc(OC)cc4)ccc31)[C@H](c1ccc(OCCO)cc1)N1[C@H](c3ccccc3)[C@H](c3ccccc3)OC(=O)[C@H]1[C@@H]2C(=O)Nc1nc2ccccc2s1 = 1.29
• C=C(/C(=C/C[C@H](OC(=O)c1ccncc1)c1ccccc1OCCO)c1cnc2ccccc2c1)C(C)C = 1.31
• COc1cccc(/C=C(\C#N)C(=O)Nc2c(C)n(C)n(-c3ccccc3)c2=O)c1 = 0.949
• COc1ccc([Si](C)(C)[C@@H]2[C@@H](CCn3cc([C@H](O)c4ccccc4)nn3)O[C@]3(C(=O)N(c4ccccc4)c4ccccc43)[C@H]2C)cc1 = 0.548
• CCOC(=O)C1=C[C@@H](C(C)(C)C)N(S(=O)(=O)c2ccc(C)cc2)[C@H]1c1ccccc1 = 1.31
• CCCCC(=O)N(CCN1CCOCC1)[C@@H]1CC(C(=O)NCCO)=C[C@H](Oc2c(I)cc(CO)cc2OC)[C@H]1O = 0.593
• NC(=O)[C@H]1[C@@H]2C(=O)O[C@@H](c3ccccc3)[C@@H](c3ccccc3)N2[C@@H](c2ccc(O)cc2)[C@]12C(=O)Nc1ccc(C#CC3=CCCCC3)cc12 = 0.662
• Cc1ccc(S[C@]2(C(=O)NC(C)C)CC(=O)N(Cc3ccccc3Cl)[C@@H]2c2ccc(CO)cc2)cc1 = -1.21
• Nc1cc(Br)ccc1C(=O)O = 0.213
• C=CCC(OC(C)=O)[C@@H]1[C@@H](N(Cc2ccc(-c3ccccc3)cc2)C(=O)Cc2ccc(F)cc2)c2cc(OCCCO)ccc2N1C(=O)Cc1ccc2ccccc2c1 (some centres not stated) = -0.869
• C=CCC(OC(C)=O)[C@@H]1[C@@H](N(Cc2cccc3ccccc23)C(=O)c2cccc3ccccc23)c2cc(OCCCO)ccc2N1C(=O)c1ccc2ccccc2c1 (some centres not stated) = -0.047
• C=CCNC(=O)[C@H]1[C@@H]2C(=O)O[C@@H](c3ccccc3)[C@@H](c3ccccc3)N2[C@@H](c2ccc(O)cc2)[C@]12C(=O)N(C(=O)OCCOC)c1ccc(C#CCC(C(=O)OC)C(=O)OC)cc12 = 1.3
• CN1C(=O)[C@@]2(Cc3ccccc3)N=C(c3ccc(OCCCO)cc3)O[C@H]2c2ccccc21 = 1.19
• COC(=O)C1=CC(CCCO)=CC(c2ccc(CN3CCCC3)cc2)N(Cc2cc3c(cc2Br)OCO3)C=C1C(=O)OC (configuration not stated) = 1.3
• CO[C@H]1O[C@H](CO)[C@@H](OC(=O)CCc2ccccc2)[C@H](OC(=O)c2cc3ccccc3[nH]2)[C@H]1OC(=O)c1cc2ccccc2[nH]1 = 1.22
• CCCCCN1CC=CC23O[C@@H]4/C=C\CCC(C)OC(=O)C4[C@H]2C(=O)N(CCCCCCO)[C@@H]3C1=O (some centres not stated) = 0.623
• Cc1c(NC(=O)/C(C#N)=C/c2ccccc2Cl)c(=O)n(-c2ccccc2)n1C = 0.247
• C=C(COC)/C(=C/C[C@H](OC(C)=O)c1cccc(OCCO)c1)c1cnc2ccccc2c1 = 1.24
• COc1cc(CO)cc(I)c1O[C@H]1C=C(C(=O)NCCO)C[C@@H](NCC2CCCCC2)[C@@H]1O = 0.408
• COCCOC(=O)N1C(=O)[C@@]2(c3cc(C#CC4=CCCCC4)ccc31)[C@H](c1ccc(O)cc1)N1[C@H](c3ccccc3)[C@H](c3ccccc3)OC(=O)[C@H]1[C@@H]2C(=O)NC[C@H](O)c1ccccc1 = 1.3
• [N-]=[N+]=NCc1ccccc1C[C@]1(C(=O)N2CCOCC2)COC(c2ccc(OCCCO)cc2)=N1 = 1.22
• COc1ccc([Si](C)(C)[C@H]2[C@H](CC(=O)N3Cc4ccccc4C[C@H]3CO)O[C@@]3(C(=O)N(Cc4ccc(N5C(=O)c6cccc7cccc5c67)cc4)c4ccccc43)[C@@H]2C)cc1 = 1.3
• COc1ccc([Si](C)(C)[C@@H]2[C@@H](CC(=O)N3Cc4ccccc4C[C@H]3CO)O[C@]3(C(=O)N(c4ccccc4)c4ccccc43)[C@H]2C)cc1 = 1.3
• COC(=O)[C@@]1(Cc2ccc(OC)cc2)[C@H]2c3cc(C(=O)N4CCCC4)n(Cc4ccc(S(C)(=O)=O)cc4)c3C[C@H]2CN1C(=O)c1ccccc1 = 0.838
• C=CCNC(=O)[C@@H]1[C@H]2C(=O)O[C@H](c3ccccc3)[C@H](c3ccccc3)N2[C@H](c2ccc(OCCO)cc2)[C@@]12C(=O)N(C(=O)OCCOC)c1ccc(C#CCCO)cc12 = 1.27
